# TESTED_TARGET: T1, native human ApoC3 (human, UniProt P02656 21-99, biotinylated in the captured-antigen assays (Tables 6 and 8); sites not stated)
# T1 construct: also called nhuApoC3; native huApoC3
# T1 sequence (P02656 21-99): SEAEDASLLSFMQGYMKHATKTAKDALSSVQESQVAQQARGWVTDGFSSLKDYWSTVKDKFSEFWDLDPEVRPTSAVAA
# ASSAY_PROCEDURE: SPR, IgG captured via anti-human Fc, ApoC3 analyte 50 nM
kon values by entry
ENDPOINT: kon (M⁻¹ s⁻¹)

[[record]]
binder = "29A05 IgG (antibody, V domains shown) VH: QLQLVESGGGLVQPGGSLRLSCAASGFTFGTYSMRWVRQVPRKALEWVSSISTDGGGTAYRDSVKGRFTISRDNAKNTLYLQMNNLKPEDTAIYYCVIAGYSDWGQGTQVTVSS VL: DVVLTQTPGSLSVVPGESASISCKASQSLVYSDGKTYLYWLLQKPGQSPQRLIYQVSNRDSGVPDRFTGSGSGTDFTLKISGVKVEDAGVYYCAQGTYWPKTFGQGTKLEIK"
endpoint = "kon"
reported_value = 210000

[[record]]
binder = "29G11 IgG (antibody, V domains shown) VH: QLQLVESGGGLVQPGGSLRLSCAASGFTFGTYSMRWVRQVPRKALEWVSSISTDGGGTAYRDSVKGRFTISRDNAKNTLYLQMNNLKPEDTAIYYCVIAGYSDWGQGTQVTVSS VL: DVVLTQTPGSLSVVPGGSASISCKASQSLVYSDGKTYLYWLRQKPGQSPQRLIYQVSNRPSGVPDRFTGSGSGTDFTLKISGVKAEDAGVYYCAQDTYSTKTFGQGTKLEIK"
endpoint = "kon"
reported_value = 240000

[[record]]
binder = "29F10 IgG (antibody, V domains shown) VH: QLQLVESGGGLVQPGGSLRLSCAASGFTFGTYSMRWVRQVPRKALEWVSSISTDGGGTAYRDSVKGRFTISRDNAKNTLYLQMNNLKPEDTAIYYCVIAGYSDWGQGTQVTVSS VL: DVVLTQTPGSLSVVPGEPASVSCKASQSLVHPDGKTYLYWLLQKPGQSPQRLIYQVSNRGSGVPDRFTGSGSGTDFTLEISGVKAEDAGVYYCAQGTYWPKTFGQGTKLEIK"
endpoint = "kon"
reported_value = 144000


Numbers sourced from patent US20210347865A1.
